measured_target: b-Raf (V600E) (Homo sapiens, UniProt P15056, V600E)
Sequence (P15056 whole entry V600E): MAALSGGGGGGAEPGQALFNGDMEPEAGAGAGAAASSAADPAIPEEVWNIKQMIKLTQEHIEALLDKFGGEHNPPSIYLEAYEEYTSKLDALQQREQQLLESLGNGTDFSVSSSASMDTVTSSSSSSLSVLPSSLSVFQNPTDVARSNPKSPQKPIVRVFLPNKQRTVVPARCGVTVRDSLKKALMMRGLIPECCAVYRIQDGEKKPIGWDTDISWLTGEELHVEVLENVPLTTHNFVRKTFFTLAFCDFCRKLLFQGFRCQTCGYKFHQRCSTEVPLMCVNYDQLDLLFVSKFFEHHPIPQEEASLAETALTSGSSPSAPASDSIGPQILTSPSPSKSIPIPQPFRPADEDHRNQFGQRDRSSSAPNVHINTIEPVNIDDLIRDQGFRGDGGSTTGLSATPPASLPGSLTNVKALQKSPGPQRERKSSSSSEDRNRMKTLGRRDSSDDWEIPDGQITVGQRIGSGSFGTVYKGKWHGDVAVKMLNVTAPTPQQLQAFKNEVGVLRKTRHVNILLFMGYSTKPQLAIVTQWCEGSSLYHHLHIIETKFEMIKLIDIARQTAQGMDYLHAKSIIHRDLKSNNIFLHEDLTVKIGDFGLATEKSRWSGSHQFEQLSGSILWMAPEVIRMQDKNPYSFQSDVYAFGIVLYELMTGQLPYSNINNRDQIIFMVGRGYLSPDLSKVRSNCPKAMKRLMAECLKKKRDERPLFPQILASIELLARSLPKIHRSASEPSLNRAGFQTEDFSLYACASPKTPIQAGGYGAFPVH
assay_comment: In vitro Raf activity determination (Alpha Screen, biotinylated kinase-dead MEK1 substrate), B-Raf
measurement_setup: b-Raf (V600E) approximately 4 pM; ATP 10 μM; pre-incubation 60 minutes; reaction 3 hours at room temperature
Description: Full length MEK1 with an inactivating K97R ATP binding site mutation is utilized as a RAF substrate. The MEK1 cDNA was subcloned with an N-terminal (his)6 tag into a vector for E. Coli expression. The MEK1 substrate was purified from E. Coli lysate by nickel affinity chromatography followed by anion exchange. The final MEK1 preparation was biotinylated (Pierce EZ-Link Sulfo-NHS-LC-Biotin) and concentrated. […]
measurement_type: log10 IC50 (log10 of the value in nM)
Hello, just confirming the data are log10 of IC50 with units of nM.

Consider the molecule `Cc1ncc(NC(=O)c2ccnc(C(C)(C)C#N)c2)cc1-c1cnc(-c2cccnc2)c(C#N)c1` . State its measured log10 IC50. 1.14

Provide only the value of recorded log10 IC50 for `Cc1ncc(NC(=O)c2ccnc(C(F)(F)F)c2)cc1-c1cnc(N2CC(C)(O)C2)c(C#N)c1` 0.93

State its log10 IC50 for this molecule: `Cc1ccc(NC(=O)c2cccc(S(C)(=O)=O)c2)cc1-c1cnc(N2CC(C)(O)C2)c(C#N)c1` 0.55

Input `Cc1ncc(NC(=O)c2ccnc(C(C)(C)C#N)c2)cc1-c1cnc(-n2ccnc2C)c(C#N)c1` , output reported log10 IC50. 1.96

Identify the reported log10 IC50 for the following entry. `Cc1cn(-c2ncc(-c3cc(NC(=O)c4ccnc(C(C)(C)C#N)c4)cnc3C)cc2C#N)cn1` 1.40

Give log10 IC50 for the following molecule: `Cc1ncc(NC(=O)c2ccnc(C(C)(C)C#N)c2)cc1-c1cnc(-c2ccc(=O)n(C)c2)c(C#N)c1` 1.26

Give me measured log10 IC50, please, for this molecule: `Cc1ncc(NC(=O)c2cccc(C(F)(F)F)c2)cc1-c1cnc(N)c(C#N)c1` 0.21

Supply reported log10 IC50 belonging to this molecule: `Cc1ncc(NC(=O)c2cnnc(C(F)(F)F)c2)cc1-c1cnc(C2CCOCC2)c(C#N)c1` 1.88

====

measured_target: b-Raf (V600E) (Homo sapiens, UniProt P15056, V600E)
assay_comment: In vitro Raf activity determination (Alpha Screen, biotinylated kinase-dead MEK1 substrate), B-Raf
measurement_setup: b-Raf (V600E) approximately 4 pM; ATP 10 μM; pre-incubation 60 minutes; reaction 3 hours at room temperature
Would you mind telling me the reported pIC50 of each entry?
# pIC50: negative log10 of molar concentration; output just the value

Item `Cc1ncc(NC(=O)c2ccnc(C(F)(F)F)c2)cc1-c1cnc(N2CCNCC2)c(C#N)c1` : provide pIC50 9.00

Consider the molecule `Cc1ccc(NC(=O)c2cc(C(C)(F)F)ccn2)cc1-c1cnc(N2CC(C)(O)C2)c(C#N)c1` and give its recorded pIC50. 8.45

Quickly give me recorded pIC50 for `Cc1ccc(NC(=O)c2ccnc(C(F)(F)F)c2)cc1-c1cnc(NC2CC2)c(C#N)c1` 9.24

// Input: `Cc1ccc(NC(=O)c2ccnc(C(C)(C)C#N)c2)cc1-c1cncc(C#N)c1` . Output its pIC50 only. 7.95

Given `Cc1ncc(NC(=O)c2ccnc(C(C)(C)C#N)c2)cc1-c1cnc(N2CCOC[C@H]2C)c(C#N)c1` , respond with its pIC50. 8.36

# return recorded pIC50 for input `Cc1ncc(NC(=O)c2ccnc(C(C)(C)C#N)c2)cc1-c1cnc(OCCO)c(C#N)c1` 7.13

Please supply the value of reported pIC50 for the item `CCn1cc(C(=O)Nc2ccc(C)c(-c3cnc(N4CCNCC4)c(C#N)c3)c2)cc(C(F)(F)F)c1=O` 8.60

Consider the molecule `Cc1ncc(NC(=O)c2ccnc(C(C)(C)C#N)c2)cc1-c1cnc(-c2cn(C)nc2C)c(C#N)c1` and give its recorded pIC50. 8.20

Using the record for `COCCNc1ncc(-c2cc(NC(=O)c3ccnc(C4(C#N)CC4)c3)cnc2C)cc1C#N` , state its measured pIC50. 8.28

Provide pIC50 value for the following molecule: Cc1ncc(NC(=O)c2ccnc(C(C)(C)C#N)c2)cc1-c1cnc(NC2CCOC2)c(C#N)c1 (stereo in doubt) [Example 78b] 7.99

Answer with the recorded pIC50 for the molecule listed here: `Cc1ccc(NC(=O)c2ccnc(C(F)(F)F)c2)cc1-c1cc(C#N)c(N)nc1C` 7.99

Answer with the recorded pIC50 of `Cc1ncc(NC(=O)c2cc(C(C)(C)C#N)ccn2)cc1-c1cnc(N2CC(C)(O)C2)c(C#N)c1` only. 7.80

Tell us which pIC50 value is on record for `Cc1ccc(NC(=O)c2cc(C(C)(C)N)cc(C(F)(F)F)c2)cc1-c1cnc(N2CCOCC2)c(C#N)c1` 8.60

Supply reported pIC50 belonging to this molecule: `Cc1ccc(NC(=O)c2cccc(S(C)(=O)=O)c2)cc1-c1cnc(N2CCNCC2)c(C#N)c1` 8.83

Fill in reported pIC50 for this entry: `Cc1ccc(NC(=O)c2cc(C(C)(C)F)ccn2)cc1-c1cnc(N2CCOCC2)c(C#N)c1` 8.49

Supply pIC50 value. Item: `Cc1ccc(NC(=O)c2cnnc(C(C)(C)C#N)c2)cc1-c1cnc(N2CCOCC2)c(C#N)c1` 8.91

Please indicate pIC50 recorded for `Cc1ccc(NC(=O)c2ccnc(C3(C#N)CC3)c2)cc1-c1cnc(N2CC(C)(O)C2)c(C#N)c1` 9.03

Given `Cc1ncc(NC(=O)c2ccnc(C(F)(F)F)c2)cc1-c1cnc(Oc2ccccn2)c(C#N)c1` , respond with its pIC50. 7.57

Input `Cc1ccc(NC(=O)c2ccnc(S(C)(=O)=O)c2)cc1-c1cnc(N2CCNCC2)c(C#N)c1` , output reported pIC50. 8.25

Look up pIC50 of `Cc1ccc(NC(=O)c2ccnc(C(F)(F)F)c2)cc1-c1cnc(-c2cnn(C)c2)c(C#N)c1` and report it. 9.37

Output measured pIC50 for this item: `CCn1cc(C(=O)Nc2ccc(C)c(-c3cnc(N(C)C)c(C#N)c3)c2)c(C)n1` 7.22

Provide one value: measured pIC50 of `Cc1ccc(NC(=O)c2ccnc(C(F)(F)F)c2)cc1-c1cnc(NC(C)C)c(C#N)c1` 8.90

Note down pIC50 recorded for `Cc1ccc(NC(=O)c2ccnc(S(C)(=O)=O)c2)cc1-c1cnc(N2CCOCC2)c(C#N)c1` 9.46

Entry `Cc1ccc(NC(=O)c2ccnc(C(F)F)c2)cc1-c1cnc(N2CC(C)(O)C2)c(C#N)c1` needs its pIC50 filled in; supply it. 8.33

Provide pIC50 value for the following molecule: `CNc1ncc(-c2cc(NC(=O)c3cccc(C(F)(F)F)c3)ccc2C)cc1C#N` 8.88

Quickly give me recorded pIC50 for `Cc1ncc(NC(=O)c2cnnc(C(F)(F)F)c2)cc1-c1cnc(NC2CCOCC2)c(C#N)c1` 8.32

// Input: `Cc1ncc(NC(=O)c2cc(C(C)(C)O)ccn2)cc1-c1cnc(N2CC(C)(O)C2)c(C#N)c1` . Output its pIC50 only. 7.55

Give pIC50 for `Cc1ncc(NC(=O)c2ccnc(C(F)(F)F)c2)cc1-c1cnc(-c2ccn(C)c(=O)c2)c(C#N)c1` 8.50

Provide only the value of recorded pIC50 for `Cc1ncc(NC(=O)c2ccnc(C(C)(C)C#N)c2)cc1-c1cnc(N2CCNCC2)c(C#N)c1` 8.39

Report pIC50 for `Cc1ncc(NC(=O)c2ccnc(C3(C#N)CC3)c2)cc1-c1cnc(N2CC(C)(O)C2)c(C#N)c1` 8.47

Return pIC50 for the following molecule: `Cc1ncc(NC(=O)c2cc(C3CC3)on2)cc1-c1cnc(N(C)C)c(C#N)c1` 7.96
